Source of measurements: the supplement of paper PMC11208160

testName: recombinant barcode read abundance after kanamycin selection (control-corrected) (log10(CPM+1)); higher = more efficient recombination; sequences stand for … in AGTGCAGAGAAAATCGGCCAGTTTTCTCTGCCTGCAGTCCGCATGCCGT…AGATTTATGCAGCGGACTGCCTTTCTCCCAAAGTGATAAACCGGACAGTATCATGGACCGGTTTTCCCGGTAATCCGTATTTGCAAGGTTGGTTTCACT; site = the 11-nt target;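 also: IS621 recombinase and bridge RNA in Escherichia coli cells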
valueKind: recombinant barcode read abundance (log10)

Here are 5 sequences together with their reported answers.
>>> df
                             recordsequence  observedmeasurement
0  ACCTTGTCTTGGGTTCTAACCTGTTGCTA (site ACCTTGTCTTA)                0.777
1  GTGCAACCTTGGGTTCTAACCTGTTGCCT (site GTGCAACCTAG)                 1.34
2  GGAATACCTTGGGTTCTAACCTGTTGCCT (site GGAATCCCTAG)                0.157
3  GGGGCACCTTGGGTTCTAACCTGTTGCTT (site GGGGCACCTAC)                 0.68
4  GAGAATCCTTGGGTTCTAACCTGTTGCGT (site GAGAATCCTAC)                 2.49

Data request: # recombinant barcode read abundance (log10) lookup, item AGTAGGACTTGGGTTCTAACCTGTTGCCT (site AGTAGGACTAG)
Data returned: 0.242

Data request: How about this sequence: ATTCCATCTTGGGTTCTAACCTGTTGCCT (site ATTCCATCTAG)
Data returned: 0.538

Data request: And then AGCTTAGCTTGGGTTCTAACCTGTTGCCT (site AGCTTAGCTCG) , what is it?
Data returned: 0.577

Data request: Same thing, different sequence: CTGAGCCCTTGGGTTCTAACCTGTTGCCT (site CTGAGCCCTAG)
Data returned: 0.6

Data request: Next entry: TCTCGGCCTTGGGTTCTAACCTGTTGCCT (site TCTCCGCCTAG)
Data returned: 0.394
